Data provenance is paper PMC10786891.

# study_target: T1, EsCas13d, nuclease-dead (Eubacterium siraeum, UniProt B0MS50, R295A;H300A;R849A;H854A)
# T1 sequence: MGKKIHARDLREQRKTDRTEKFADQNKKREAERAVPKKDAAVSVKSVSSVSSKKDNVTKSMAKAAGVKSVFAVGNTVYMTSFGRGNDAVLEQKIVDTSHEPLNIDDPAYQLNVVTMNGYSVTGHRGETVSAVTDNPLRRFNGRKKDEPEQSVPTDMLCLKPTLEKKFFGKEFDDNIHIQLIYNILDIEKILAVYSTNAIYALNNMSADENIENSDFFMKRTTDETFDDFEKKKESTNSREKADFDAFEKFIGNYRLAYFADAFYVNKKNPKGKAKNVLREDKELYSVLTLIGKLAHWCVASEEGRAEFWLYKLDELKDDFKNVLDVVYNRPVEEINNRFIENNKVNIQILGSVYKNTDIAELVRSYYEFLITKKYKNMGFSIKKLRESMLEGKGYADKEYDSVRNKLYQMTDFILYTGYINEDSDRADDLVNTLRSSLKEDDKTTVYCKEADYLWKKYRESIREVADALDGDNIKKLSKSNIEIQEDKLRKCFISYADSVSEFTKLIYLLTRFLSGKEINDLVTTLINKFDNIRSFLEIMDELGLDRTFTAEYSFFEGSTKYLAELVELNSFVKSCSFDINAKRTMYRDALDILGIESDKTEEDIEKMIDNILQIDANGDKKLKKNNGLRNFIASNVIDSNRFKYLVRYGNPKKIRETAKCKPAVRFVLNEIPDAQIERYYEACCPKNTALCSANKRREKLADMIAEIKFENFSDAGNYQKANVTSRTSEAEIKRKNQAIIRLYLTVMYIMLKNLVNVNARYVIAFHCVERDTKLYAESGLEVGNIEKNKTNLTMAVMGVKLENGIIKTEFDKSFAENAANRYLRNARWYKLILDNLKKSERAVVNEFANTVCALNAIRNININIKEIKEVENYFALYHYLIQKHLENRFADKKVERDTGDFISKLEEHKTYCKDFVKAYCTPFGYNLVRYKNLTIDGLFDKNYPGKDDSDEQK
# assay_overview: crRNA (strand 1, pre-loaded); Mg2+; 40 mM Tris-HCl pH 7.5, 150 mM NaCl, 6 mM MgCl2, 1 mM DTT, 0.1% Tween-20, 0.2 mg/ml BSA; 25 C; 10 min per concentration, then washed
# measurement_context: tags: His6-TwinStrep-SUMO cleaved; N-terminal SNAP kept (SNAP-Surface 488); label: 3' end held by stalled T7 RNA polymerase
measurement_kind: pKd
Lab note: report pKd as minus log10 of the concentration in molar units, number only.

Examples with answers:
target 1 MT 5'PFS GUC 3'PFS UCA (mixed) RNA 1: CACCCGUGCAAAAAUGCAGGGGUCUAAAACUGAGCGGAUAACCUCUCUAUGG RNA 2: GGGAAUGGAUCCACAUCUACGAAUUCGUCCCAUAGAGAGGUUAUCCGCUCAUCAAGAUCGGAAGAGCACACGU	7.73
target 1 MT 5'PFS GGA 3'PFS AAU (mixed) RNA 1: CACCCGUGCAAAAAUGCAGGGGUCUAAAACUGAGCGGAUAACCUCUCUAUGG RNA 2: GGGAAUGGAUCCACAUCUACGAAUUCGGACCAUAGAGAGGUUAUCCGCUCAAAUAGAUCGGAAGAGCACACGU	7.68
target 1 C2U,G15U (mixed) RNA 1: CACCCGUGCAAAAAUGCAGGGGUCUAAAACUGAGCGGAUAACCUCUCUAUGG RNA 2: GGGAAUGGAUCCACAUCUACGAAUUCGUACCAUAGAUAGGUUAUCCGCUUACCGAGAUCGGAAGAGCACACGU	7.54

Q. # pKd lookup, item target 1 insC 3' of 18,insA 3' of 17 (mixed) RNA 1: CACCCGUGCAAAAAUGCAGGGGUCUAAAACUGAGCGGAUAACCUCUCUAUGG RNA 2: GGGAAUGGAUCCACAUCUACGAAUUCGUACCAUACGAAGAGGUUAUCCGCUCACCGAGAUCGGAAGAGCACACGU
A. 7.30
